Target: GRP receptors on Swiss 3T3 cells (Mus musculus, UniProt P21729)
Construct: conducted in 24-well tissue culture plates (GIBCO) using Swiss 3T3 cells; endogenous in cells
Sequence (P21729 whole entry): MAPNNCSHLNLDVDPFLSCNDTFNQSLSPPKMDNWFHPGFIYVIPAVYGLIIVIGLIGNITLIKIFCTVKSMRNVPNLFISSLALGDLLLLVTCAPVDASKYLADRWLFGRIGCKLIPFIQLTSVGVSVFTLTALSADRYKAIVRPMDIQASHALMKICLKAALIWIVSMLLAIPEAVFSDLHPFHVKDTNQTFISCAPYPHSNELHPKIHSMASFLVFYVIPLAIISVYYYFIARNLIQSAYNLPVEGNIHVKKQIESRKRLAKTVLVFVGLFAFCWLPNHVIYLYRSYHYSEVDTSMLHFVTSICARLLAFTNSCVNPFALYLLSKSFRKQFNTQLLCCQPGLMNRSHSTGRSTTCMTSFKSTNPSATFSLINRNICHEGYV
Test: Receptor binding assay: displacement of 125I-GRP(14-27) on Swiss 3T3 cells
Conditions: calculated by Cheng and Prussoff equation IC50=Kc(1+L/Kh); 0.2 nM radioligand
pIC50: −log10 of the molar value.
measurementLabel: pIC50

1) CC(C)C[C@@H](CN[C@@H](Cc1c[nH]c2ccccc12)C(N)=O)NC(=O)[C@H](Cc1c[nH]cn1)NC(=O)CNC(=O)[C@@H](NC(=O)[C@H](C)NC(=O)[C@H](Cc1c[nH]c2ccccc12)NC(=O)[C@H](CCC(N)=O)NC(=O)[C@H](N)Cc1ccccc1)C(C)C [Peptide 28] : 8.04
2) CC(C)C[C@@H](CN[C@@H](CC(C)C)C(N)=O)NC(=O)[C@H](Cc1c[nH]cn1)NC(=O)CNC(=O)[C@@H](NC(=O)[C@H](C)NC(=O)[C@H](Cc1c[nH]c2ccccc12)NC(=O)[C@H](CCC(N)=O)NC(=O)[C@H](N)Cc1c[nH]c2ccccc12)C(C)C [Peptide 2] : 7.91
